Counter-ions that a name gives are not always drawn.
METRIC: melting point

>>> recorded_value("CN1C(=O)c2cc(-c3ccccc3)cn2-c2cc(-c3ccc(C#N)nc3)ccc2C12CC2 [Example 117]")
"200 to 204 °C"
>>> recorded_value("COC(=O)c1ncccc1-c1ccc2c(c1)-n1cccc1C(=O)N(C)C21CC1 [Example 71]")
"198 to 203 °C"
>>> recorded_value("Cc1ncccc1-c1ccc2c(c1F)-n1cccc1C(=O)N(C)C21CC1 (as salt: hydrochloride) [Example 75]")
"166 to 184 °C"
>>> recorded_value("CN1C(=O)c2cc(-c3ccccc3)nn2-c2cc(-c3ccccc3)ccc2C12CC2 [Example 123]")
"133 to 140 °C"
>>> recorded_value("CN1C(=O)c2cccn2-c2cc(-c3cccc(C#N)c3)ccc2C12CC2 [Example 44]")
"189 to 194 °C"
>>> recorded_value("CN1C(=O)c2cccn2-c2cc(-c3ccc(N4CCCCC4)nc3)ccc2C12CC2 (as salt: hydrochloride) [Example 43]")
"188 to 193 °C"
>>> recorded_value("Cc1ccc(-c2ccc3c(c2)-n2cccc2C(=O)N(C)C32CC2)c(C)n1 (as salt: hydrochloride) [Example 56]")
"> 250 °C"
>>> recorded_value("CN1C(=O)c2cccn2-c2cc(-c3ccc(F)nc3)ccc2C12CC2 [Example 31]")
"171 to 176 °C"
>>> recorded_value("Cc1ncccc1-c1ccc2c(c1)-n1cc(-c3nccs3)cc1C(=O)N(C)C21CC1 (as salt: hydrochloride) [Example 157]")
"240 to 245 °C"
>>> recorded_value("CN1C(=O)c2cc(-c3ccccc3)cn2-c2cc(-c3ccc(F)nc3)ccc2C12CC2 [Example 106]")
"177 to 184 °C"
>>> recorded_value("Cc1ncccc1-c1ccc2c(c1)-n1cc(-c3ncc[nH]3)cc1C(=O)N(C)C21CC1 (as salt: hydrochloride) [Example 184]")
"> 250 °C"
>>> recorded_value("CN1C(=O)c2cc(-c3ccccc3)nn2-c2cc(C#N)ccc2C12CC2 [Example 137]")
"196 to 200 °C"
>>> recorded_value("CN1C(=O)c2cc(-c3ccccc3)cn2-c2ccc(N3CCOCC3)cc2C12CC2 [Example 120]")
"117 to 123 °C"
>>> recorded_value("CN1C(=O)c2cccn2-c2cc(-c3cnc(N)c(C(F)(F)F)c3)ccc2C12CC2 (as salt: hydrochloride) [Example 40]")
"> 250 °C"
>>> recorded_value("COCc1cc2n(c1)-c1cc(-c3ccc(F)nc3)ccc1C1(CC1)N(C)C2=O [Example 207]")
"71 to 80 °C"

====

biological target: human mGluR3 (hmGluR3) (Homo sapiens, UniProt Q14832); assay: Human mGluR3 positive allosteric modulator evaluation using Ca++ functional assay; settings: hmGluR3 transiently over-expressed in HEK-293 cells; stimulated by EC50 glutamate concentration; intracellular Ca2+ (Fluo4AM, FLIPR Tetra)
Sequence (Q14832 23-879): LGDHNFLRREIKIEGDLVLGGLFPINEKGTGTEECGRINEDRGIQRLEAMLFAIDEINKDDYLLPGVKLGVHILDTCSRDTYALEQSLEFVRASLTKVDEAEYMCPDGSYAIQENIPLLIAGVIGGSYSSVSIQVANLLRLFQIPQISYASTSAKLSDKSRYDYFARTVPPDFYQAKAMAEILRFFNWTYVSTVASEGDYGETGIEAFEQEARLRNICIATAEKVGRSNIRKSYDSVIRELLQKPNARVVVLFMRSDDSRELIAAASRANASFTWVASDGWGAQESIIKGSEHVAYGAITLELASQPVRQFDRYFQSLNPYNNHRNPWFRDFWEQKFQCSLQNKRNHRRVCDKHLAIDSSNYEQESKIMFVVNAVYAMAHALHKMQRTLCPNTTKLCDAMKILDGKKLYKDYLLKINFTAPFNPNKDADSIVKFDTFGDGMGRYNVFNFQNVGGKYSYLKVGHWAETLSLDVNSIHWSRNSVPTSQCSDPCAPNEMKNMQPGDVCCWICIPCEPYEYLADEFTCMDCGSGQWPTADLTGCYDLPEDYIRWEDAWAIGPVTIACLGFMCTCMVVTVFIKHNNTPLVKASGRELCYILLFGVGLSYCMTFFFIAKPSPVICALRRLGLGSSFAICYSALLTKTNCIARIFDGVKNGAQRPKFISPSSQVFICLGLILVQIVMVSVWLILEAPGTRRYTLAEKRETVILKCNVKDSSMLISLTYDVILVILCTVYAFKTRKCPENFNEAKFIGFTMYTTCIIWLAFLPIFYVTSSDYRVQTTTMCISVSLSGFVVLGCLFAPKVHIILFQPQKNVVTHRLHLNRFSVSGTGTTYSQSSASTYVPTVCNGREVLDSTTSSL
# EC50 per entry
METRIC: EC50

>>> recorded_value("Cc1ncccc1-c1ccc2c(c1)-n1cc(-c3ccncc3)cc1C(=O)N(C)C21CC1")
"< 100 nM"
>>> recorded_value("CN1C(=O)c2cc(-c3ccccc3)nn2-c2cc(N3CCCC3)ccc2C12CC2")
"> 1000 nM"
>>> recorded_value("Cc1ncccc1-c1ccc2c(c1)-n1cc(-c3ccnn3C)cc1C(=O)N(C)C21CC1")
"< 100 nM"
>>> recorded_value("CN1C(=O)c2cc(-c3ccccc3)nn2-c2cc(-c3ccccc3)ccc2C12CC2")
"> 1000 nM"
>>> recorded_value("CN1C(=O)c2cc(-c3ccccc3)cn2-c2cc(-c3cccnn3)ccc2C12CC2")
"100 to 1000 nM"
